The values you see were collected from patent US8247194.

- Study System: T1, recombinant human GM-CSF (rhGM-CSF), produced in E. coli (human, UniProt P04141 18-144)
- T1 construct: The ELISA of 2.5.2 and the TF-1 proliferation assays say only rhGM-CSF without naming the preparation; they are assigned to this molecule; also called human GM-CSF antigen; recombinant human granulocyte macrophage colony stimulating factor
- T1 sequence (P04141 18-144 limits assumed): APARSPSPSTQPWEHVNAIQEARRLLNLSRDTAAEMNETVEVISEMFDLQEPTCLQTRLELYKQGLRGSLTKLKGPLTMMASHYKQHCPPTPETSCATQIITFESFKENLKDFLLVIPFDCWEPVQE
- Run Description: SPR off-rate ranking, purified periplasmic preparation over immobilized rhGM-CSF; clone listed among the sequenced hits in the 2nd table
Measurement Type: binding result

Lookup: Specify measured binding result for half-human SCA B32oN-33 (scFv, Expressed from pComb3H5BFlag/His) scFv: ELQLVEQSGAALVKPGDSVKMSCKASGYPFTDYIVHWVKQSHGKSLDWIGYINPYSGDTKFNEKFKSKATLTVDKSSSTAYMEFSRLTSEDSAIYYCARSGLIAVYFDYWGQGTTVTVSSGGGGSGGGGSGGGGSELVMTQSPATLSLSPGERATLSCRASQSVRTYLAWYQQKPGQAPRLLIYAASHRATGIPARFSGSGSGTDFTLTISRLEPEDFAVYYCQQYGSSPPTFGQGTKVEIKTGDYKDDDDKHHHHHH .
Found: binds

Lookup: Specify measured binding result for half-human SCA B32oN-67 (scFv, Expressed from pComb3H5BFlag/His) scFv: ELQLVEQSGAALVKPGDSVKMSCKASGYPFTDYIVHWVKQSHGKSLDWIGYINPYSGDTKFNEKFKSKATLTVDKSSSTAYMEFSRLTSEDSAIYYCARSGLIAVYFDYWGQGTTVTVSSGGGGSGGGGSGGGGSELVLTQSPGFQSVTPKEKVTITCRASQSIGSSLHWYQQKPDQSPKLLIKFASQSISGVPSRFTGSGSGTDFTLTISSLQPEDIATYYCQQSYSTPWTFGQGTKLEIKTGDYKDDDDKHHHHHH .
Found: binds
